experiment: in vitro; conditions: human, microsomes, CLH
// label = True if microsomal CLint is not less than 70 µL/min/mg, otherwise False

Consider the worked cases shown below.
O=C(NCc1ccc(C(F)(F)F)cc1)C1c2ccccc2C(=O)N1CCc1ccccn1 (centres undefined)	True
O=C(NCc1ccc(OC(F)(F)F)cc1)C1c2ccccc2C(=O)N1CCc1ncccn1 (centres undefined)	False
N#C[C@H]1CC[C@H](N2C(=O)c3ccccc3C2C(=O)NCc2ccc(OC(F)(F)F)cc2)CC1 (some centres undefined)	False
CC(Cc1ccccn1)N1C(=O)c2ccccc2C1C(=O)NCc1ccc(OC(F)(F)F)cc1 (centres undefined)	True
O=C(NCc1ccc(OC(F)(F)F)cc1)C1c2c(O)cccc2C(=O)N1CCc1ccccn1 (centres undefined)	False
COc1cccc2c1C(C(=O)NCc1ccc(OC(F)(F)F)cc1)N(CCc1ccccn1)C2=O (centres undefined)	True

Q: Has O=C(NCc1ccc(OC(F)(F)F)cc1)C1c2ccccc2C(=O)N1C[C@@H]1CCCO1 (some centres undefined) a recorded microsomal CLint greater than or equal to 70 µL/min/mg?
Ans: False

Q: Has Cc1cccc2c1C(C(=O)NCc1ccc(OC(F)(F)F)cc1)N(CCc1ccccn1)C2=O (centres undefined) a recorded microsomal CLint greater than or equal to 70 µL/min/mg?
Ans: True

###

test: in vitro; details: human, microsomes, CLH
Mark 1 for reported microsomal CLint of 60 µL/min/mg or greater; mark -1 for anything smaller.

The following molecules have reported results that may help.
O=C(NCc1ccccc1Br)C1c2ccccc2C(=O)N1CCc1ccccn1 (centres undefined)	1
O=C(NCc1ccc(OC(F)(F)F)cc1)C1c2ccccc2C(=O)N1CCc1ccncc1 (centres undefined)	1

Q: In plain terms: is recorded microsomal CLint at least 60 µL/min/mg for O=C(NCc1ccc(OC(F)(F)F)cc1)C1c2ccccc2C(=O)N1CC(F)(F)c1ccccn1 (centres undefined) ?
Ans: -1

Q: Quick check: does O=C(NCc1ccc(OC(F)(F)F)cc1)C1c2c(F)cccc2C(=O)N1CCc1ccccn1 (centres undefined) have microsomal CLint greater than or equal to 60 µL/min/mg?
Ans: 1

Q: Threshold query (microsomal CLint >= 60 µL/min/mg) on O=C(NCc1cccc(Br)c1)C1c2ccccc2C(=O)N1CCc1ccccn1 (centres undefined)
Ans: 1

Q: Please check the record CC(NC(=O)C1c2ccccc2C(=O)N1CCc1ccccn1)c1ccc(OCC(F)(F)F)cc1 (centres undefined) and state if its microsomal CLint is at or above 60 µL/min/mg.
Ans: 1

Q: For this molecule, is measured microsomal CLint 60 µL/min/mg or higher? O=C(NCc1ccc(OC(F)(F)F)cc1)C1c2cccc(O)c2C(=O)N1CCc1ncc(F)cn1 (centres undefined)
Ans: -1

Q: Could you please find out whether O=C(NCc1ccc(OC(F)(F)F)cc1)C1c2ccccc2C(=O)N1C1CCOCC1 (single isomer, unassigned; enantiomer 2) has microsomal CLint that meets 60 µL/min/mg or exceeds it?
Ans: -1

Q: Reported microsomal CLint reaches at least 60 µL/min/mg for COc1cccc2c1C(=O)N(CCc1ccccn1)C2C(=O)NCc1ccc(OC(F)(F)F)cc1 (centres undefined) ?
Ans: -1

Q: Check if microsomal CLint >= 60 µL/min/mg (inclusive). Item: O=C(NCc1ccc(OC(F)(F)F)cc1)C1c2ccccc2C(=O)N1CCc1ncc(F)cn1 (centres undefined)
Ans: -1

Q: Is microsomal CLint at least 60 µL/min/mg? Consider O=C(NCc1ccc(OC(F)(F)F)cc1)C1c2ccccc2C(=O)N1CCc1cccnc1 (centres undefined)
Ans: 1

Q: Does O=C(NCc1ccc(OC(F)(F)F)cc1)C1c2ccccc2C(=O)N1CCN1CCOCC1 (centres undefined) have a reported microsomal CLint of at least 60 µL/min/mg?
Ans: -1

Q: Textbook exercise: given the entry O=C(NCc1ccc(F)c(OC(F)(F)F)c1)C1c2ccccc2C(=O)N1CCc1ncc(F)cn1 (centres undefined) , state whether its microsomal CLint is greater than or equal to 60 µL/min/mg.
Ans: 1

Q: Identify whether the reported microsomal CLint of the following molecule is 60 µL/min/mg or greater: O=C(NCc1ccc(CC(F)(F)F)cc1)C1c2ccccc2C(=O)N1CCc1ccccn1 (centres undefined)
Ans: 1

Q: Identify whether the reported microsomal CLint of the following molecule is 60 µL/min/mg or greater: O=C(NCc1ccc(Br)cc1)C1c2ccccc2C(=O)N1CCc1ccccn1 (centres undefined)
Ans: 1

Q: Please tell me: is the molecule CC(C)(C)OC(=O)N1CCC(N2C(=O)c3ccccc3C2C(=O)NCc2ccc(OC(F)(F)F)cc2)CC1 (centres undefined) at or over 60 µL/min/mg in terms of microsomal CLint?
Ans: 1

Q: Tell me whether microsomal CLint is at least 60 µL/min/mg here: O=C(NCc1ccc(OC(F)(F)F)cc1)C1c2ccccc2C(=O)N1CCOc1ccccn1 (centres undefined)
Ans: 1

Q: Could you tell me if the measured microsomal CLint of O=C(NCc1ccc(OCC(F)(F)F)nc1)C1c2ccccc2C(=O)N1CCc1ccccn1 (centres undefined) reaches 60 µL/min/mg or more?
Ans: -1

Q: Decide: is the reported value of microsomal CLint for N#CCCN1C(=O)c2ccccc2C1C(=O)NCc1ccc(OC(F)(F)F)cc1 (centres undefined) equal to or greater than 60 µL/min/mg?
Ans: -1
